assay-protocol: protein stability index of a GFP-peptide fusion (yeast GPS) (PSI 1-4); higher = more stable; sorted into four equal gates, so the index is relative within each strain
test-settings: pdr5∆
Can you tell me protein stability index for the items I'm about to list?
One number for each entry.

Worked examples follow.
| sequence-data | protein stability index |
| --- | --- |
| DHVDGSSEFVSQDTKVI [RRP46] | 2.24 |
| SLNEDVEEIKLQKEKEL [SMC2] | 1.83 |
| PFDQNLDSNNNNSNSNN [SWI1] | 2.74 |

Look up protein stability index for the entries below, preserving their order.
1. HVLYKESKGNAFKHKRA [RPL19A]
2. EIFQLFTNPSVDIQIIN [SWI1]
3. INDKRANLMLVMLRLLL [SRB4]
4. MHRPVHFLQFSELAGDE [PRP8]
5. RGAHVEKTMVKKNLGRL [PRP8]
6. KFTTVLAKILARSIDVE [ECM29]

Response:
1: 2.49; 2: 2.88; 3: 1.61; 4: 3.15; 5: 3.29; 6: 1.53

For each of the items listed, what is its protein stability index?
1. HELGINIDSLKFNELVK [BRR2]
2. MEYLKSSKSLDLNTRIS [RPN5]
3. VYNNSKDEYLAQLDGRI [NSL1]
4. IGIDEGSDEAYVKDARK [RPC40]
5. AIAGNSTTNSDVSLLLQ [RGR1]
6. NFIIWINSIDTTESSDL [GRR1]

Response:
2.93
1.69
3.26
3.38
2.19
2.38
